Ref: patent US8940720B2

# measured-on: UniProtKB P03951
# Sequence (P03951 388-625): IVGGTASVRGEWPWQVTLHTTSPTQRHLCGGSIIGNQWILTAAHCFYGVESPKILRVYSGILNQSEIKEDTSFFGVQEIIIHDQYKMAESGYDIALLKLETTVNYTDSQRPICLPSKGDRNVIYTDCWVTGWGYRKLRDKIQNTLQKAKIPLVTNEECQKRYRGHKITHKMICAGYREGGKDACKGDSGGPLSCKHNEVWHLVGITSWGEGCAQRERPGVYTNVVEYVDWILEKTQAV
# Sequence (P03951 19-387 partner): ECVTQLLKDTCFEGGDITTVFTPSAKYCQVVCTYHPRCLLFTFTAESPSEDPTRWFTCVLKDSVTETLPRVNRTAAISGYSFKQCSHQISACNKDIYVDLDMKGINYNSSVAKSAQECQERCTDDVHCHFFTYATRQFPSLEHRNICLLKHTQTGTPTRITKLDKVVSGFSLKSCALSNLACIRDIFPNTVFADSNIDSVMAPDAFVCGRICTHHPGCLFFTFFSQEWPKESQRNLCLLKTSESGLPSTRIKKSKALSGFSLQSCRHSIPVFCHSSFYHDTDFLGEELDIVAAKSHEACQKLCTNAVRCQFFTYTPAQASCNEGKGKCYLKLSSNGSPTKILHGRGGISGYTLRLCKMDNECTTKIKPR
# protocol: Factor XIa enzyme inhibition assay (chromogenic substrate S-2366)
# Type: biochemical
# stated-conditions: substrate S-2366, pH 7.4
pKi: −log10 of the molar value.
This section presents compounds with their documented pKi values.

# count of solved cases: 2
- compound: "O=C(/C=C/c1cc(Cl)ccc1-n1cnnn1)N[C@H]1C/C=C/CCC(=O)Nc2ccc(F)cc2-c2nc1[nH]c2Cl [Example I-227]"
  pKi: "> 8.30"
- compound: "COC(=O)Nc1ccc2c(c1)NC(=O)CC/C=C/CC(NC(=O)/C=C/c1cc(Cl)ccc1-n1cnnn1)c1cccc-2c1 (stereo not drawn) [Example 93]"
  pKi: "> 8.30"

Noted for COC(=O)Nc1ccc2c(c1)NC(=O)CCCC[C@H](NC(=O)/C=C/c1cc(Cl)ccc1-n1ccnn1)c1nc-2c[nH]1 [Example I-5] : its pKi reads > 8.30
